Test: self-splicing fitness, log relative to wild type (ln ratio); higher = more splicing; Tetrahymena group I intron in knt gene, E. coli kanamycin selection, DiMSum; sequences stand for … in CUCUCU…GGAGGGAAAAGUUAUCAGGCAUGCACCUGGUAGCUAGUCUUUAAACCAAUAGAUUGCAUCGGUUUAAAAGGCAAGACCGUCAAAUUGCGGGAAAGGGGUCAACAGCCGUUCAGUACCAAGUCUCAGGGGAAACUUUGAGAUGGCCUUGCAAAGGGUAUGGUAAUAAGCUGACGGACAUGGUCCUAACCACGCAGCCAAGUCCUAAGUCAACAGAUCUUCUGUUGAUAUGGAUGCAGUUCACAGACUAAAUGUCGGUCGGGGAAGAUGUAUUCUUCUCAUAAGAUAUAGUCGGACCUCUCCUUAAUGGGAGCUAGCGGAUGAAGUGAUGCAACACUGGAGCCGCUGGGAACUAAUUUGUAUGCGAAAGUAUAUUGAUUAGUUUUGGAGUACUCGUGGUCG;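 also: selection with 25 µg/mL kanamycin versus none on LB agar overnight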
Conditions: 37 °C
Threshold check on self-splicing fitness (ln): at or above -0.03 gives true, strictly below gives false.

{"BIOPOLYMER SEQUENCE": "ACCCAGCAAUAUUACGUUGU", "DISCRETE LABEL": "true"}
{"BIOPOLYMER SEQUENCE": "UGCAAGCAAUAUUACGCCAU", "DISCRETE LABEL": "false"}
{"BIOPOLYMER SEQUENCE": "CUAUAGCAAUAUUACGCGAG", "DISCRETE LABEL": "true"}
{"BIOPOLYMER SEQUENCE": "ACUCAGCAAUAUUACGAUUG", "DISCRETE LABEL": "false"}
{"BIOPOLYMER SEQUENCE": "AUAUAGCAAUAUUACGAUCU", "DISCRETE LABEL": "true"}
{"BIOPOLYMER SEQUENCE": "UCAUAGCAAUAUUACGGAGA", "DISCRETE LABEL": "false"}
